molecular target: NS3 protease (Hepatitis C virus subtype 1b, UniProt Q0ZMF1, A156V); assay: Inhibition of Hepatitis C virus genotype 1b NS3/4A protease A156V mutant assessed as substrate cleavage using Ac-C(Eu)DDMEEAbu(COO)ASK(QSY7)-amide as substrate incubated for 30 mins prior to substrate addition by time-resolved fluorescence assay
Provide the reported pIC50 of each item.
Answers are plain numbers, as −log10 of the molar value.

Quick request: pIC50 for each listed item, please.
1. C=C[C@@H]1C[C@]1(NC(=O)[C@@H]1C[C@@H]2CN1C(=O)[C@H](C1CCCCC1)NC(=O)O[C@@H]1C[C@H]1CCCCCc1c(nc3ccccc3c1OC1CCN(CC(F)(F)F)CC1)O2)C(=O)NS(=O)(=O)C1(C)CC1
2. C=C[C@@H]1C[C@]1(NC(=O)[C@@H]1C[C@@H]2CN1C(=O)[C@H](C1CCCCC1)NC(=O)O[C@@H]1C[C@H]1CCCCCc1c(nc3ccccc3c1OCCCN1CCN(C)CC1)O2)C(=O)NS(=O)(=O)C1(C)CC1
3. C=C[C@@H]1C[C@]1(NC(=O)[C@@H]1C[C@@H]2CN1C(=O)[C@H](C1CCCCC1)NC(=O)O[C@@H]1C[C@H]1CCCCCc1c(nc3ccccc3c1OC1CCN(C)CC1)O2)C(=O)NS(=O)(=O)C1(C)CC1
4. C=C[C@@H]1C[C@]1(NC(=O)[C@@H]1C[C@@H]2CN1C(=O)[C@H](C1CCCCC1)NC(=O)O[C@@H]1C[C@H]1CCCCCc1c(nc3ccccc3c1OCCCN1CC(F)C1)O2)C(=O)NS(=O)(=O)C1(C)CC1
5. C=C[C@@H]1C[C@]1(NC(=O)[C@@H]1C[C@@H]2CN1C(=O)[C@H](C1CCCCC1)NC(=O)O[C@@H]1C[C@H]1CCCCCc1c(nc3ccccc3c1OC1CCN(CCOC(F)(F)F)CC1)O2)C(=O)NS(=O)(=O)C1(C)CC1
6. C=C[C@@H]1C[C@]1(NC(=O)[C@@H]1C[C@@H]2CN1C(=O)[C@H](C(C)(C)C)NC(=O)O[C@@H]1C[C@H]1CCCCCc1nc3ccc(OC)cc3nc1O2)C(=O)NS(=O)(=O)C1CC1 [GRAZOPREVIR ANHYDROUS]

1. 7.57
2. 9.59
3. 9.04
4. 9.01
5. 8.80
6. 7.92

Quick request: pIC50 for each listed item, please.
1. C=C[C@@H]1C[C@]1(NC(=O)[C@@H]1C[C@@H]2CN1C(=O)[C@H](C1CCCCC1)NC(=O)O[C@@H]1C[C@H]1CCCCCc1c(nc3ccccc3c1O[C@H]1C[C@H]3CC[C@@H](C1)N3)O2)C(=O)NS(=O)(=O)C1(C)CC1
2. C=C[C@@H]1C[C@]1(NC(=O)[C@@H]1C[C@@H]2CN1C(=O)[C@H](C1CCCCC1)NC(=O)O[C@@H]1C[C@H]1CCCCCc1c(nc3ccccc3c1O[C@H]1C[C@H]3CC[C@@H](C1)N3CCOC)O2)C(=O)NS(=O)(=O)C1(C)CC1
3. C=C[C@@H]1C[C@]1(NC(=O)[C@@H]1C[C@@H]2CN1C(=O)[C@H](C(C)(C)C)NC(=O)O[C@@H]1C[C@H]1CCCCCc1c(nc3ccccc3c1O[C@@H]1C[C@H]3CC[C@@H](C1)N3CCOC)O2)C(=O)NS(=O)(=O)C1(C)CC1
4. C=C[C@@H]1C[C@]1(NC(=O)[C@@H]1C[C@@H]2CN1C(=O)[C@H](C1CCCCC1)NC(=O)O[C@@H]1C[C@H]1CCCCCc1c(nc3ccccc3c1OC1CCN(CCF)CC1)O2)C(=O)NS(=O)(=O)C1(C)CC1
5. C=C[C@@H]1C[C@]1(NC(=O)[C@@H]1C[C@@H]2CN1C(=O)[C@H](C(C)(C)C)NC(=O)O[C@@H]1C[C@H]1CCCCCc1c(nc3ccccc3c1O[C@H]1C[C@H]3CC[C@@H](C1)N3CC)O2)C(=O)NS(=O)(=O)C1(C)CC1

1. 9.89
2. 9.44
3. 9.07
4. 8.78
5. 9.48

// query pIC50 value for entry C=C[C@@H]1C[C@]1(NC(=O)[C@@H]1C[C@@H]2CN1C(=O)[C@H](C1CCCCC1)NC(=O)O[C@@H]1C[C@H]1CCCCCc1c(nc3ccccc3c1OCCCN1CCOCC1)O2)C(=O)NS(=O)(=O)C1(C)CC1
9.01
